Hey, just so you know, these numbers are from the RNAGym collection of RNA variant scans (doi:10.1002/anie.201605470).

B1: Osa-1-4 twister ribozyme (parent)
chain: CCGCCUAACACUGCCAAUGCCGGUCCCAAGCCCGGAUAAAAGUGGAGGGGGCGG

- Variants of: B1
- MEASUREMENT_NOTES: self-cleavage, relative activity (ratio to wild type); higher = more cleavage; co-transcriptional
QUANTITY_NAME: self-cleavage
Give bare numbers.

Here is how some variants turned out for self-cleavage.
[
  {
    "VAR": "G34A U24C",
    "MEASURED_VALUE": 0.06
  },
  {
    "VAR": "C31U G23U",
    "MEASURED_VALUE": 0.04
  },
  {
    "VAR": "A29G G51A",
    "MEASURED_VALUE": 0.1
  },
  {
    "VAR": "C32U G44U",
    "MEASURED_VALUE": 0.07
  },
  {
    "VAR": "G22U G30U",
    "MEASURED_VALUE": 0.03
  }
]

Below are some variants; for each one, tell me its self-cleavage.
1. A46G
2. A41U C31G
3. A38C G45A

1. 0.08
2. 0.13
3. 0.32

For every item in the list below, what is its measured self-cleavage?
1. C14U C20A
2. A8C G44U
3. A41U U18A
4. C20U U12C
5. G45C G51A
6. C21U G50C
7. G30C G34C
8. A29G C11A

1. 0.51
2. 0.08
3. 0.92
4. 0.49
5. 0.06
6. 0.94
7. 0.04
8. 0.08
